# Test system: NCI-H226
# procedure_text: Cytotoxicity against Homo sapiens (human) NCI-H226 assessed as cell growth at 10 uM after 48 hr by SRB assay relative to control
# Format: functional
# assay_setup: NCI-H226, 48 h, read-out: Activity
A collection of compounds and their measured growth at 10 µM
quantity_name: growth at 10 µM (%)

{"compound": "Oc1c(-c2nnc(SCc3ccccc3)o2)sc2nnc(-c3ccccc3)c(-c3ccccc3)c12", "system_under_test": "NCI-H226", "quantity_name": "growth at 10 µM", "display_unit": "%", "value_measured": 101}
{"compound": "CC(=O)Oc1c(C2=NN(C(C)=O)C(c3ccccc3[N+](=O)[O-])O2)sc2nnc(-c3ccccc3)c(-c3ccccc3)c12 (stereo unspecified)", "system_under_test": "NCI-H226", "quantity_name": "growth at 10 µM", "display_unit": "%", "value_measured": 93}
{"compound": "Oc1c(-c2nnc(-c3ccccc3)o2)sc2nnc(-c3ccccc3)c(-c3ccccc3)c12", "system_under_test": "NCI-H226", "quantity_name": "growth at 10 µM", "display_unit": "%", "value_measured": 85}
{"compound": "CCOC(=O)c1c(Nc2ccc(S(=O)(=O)Nc3nccs3)cc2)nnc(-c2ccccc2)c1-c1ccccc1", "system_under_test": "NCI-H226", "quantity_name": "growth at 10 µM", "display_unit": "%", "value_measured": 102}
{"compound": "CC1=NN(C(=O)c2sc3nnc(-c4ccccc4)c(-c4ccccc4)c3c2O)C(=O)C1", "system_under_test": "NCI-H226", "quantity_name": "growth at 10 µM", "display_unit": "%", "value_measured": 91.9}
{"compound": "CCOC(=O)c1c(Nc2ccc(S(N)(=O)=O)cc2)nnc(-c2ccccc2)c1-c1ccccc1", "system_under_test": "NCI-H226", "quantity_name": "growth at 10 µM", "display_unit": "%", "value_measured": 102}
{"compound": "Oc1c(-c2n[nH]c(=S)o2)sc2nnc(-c3ccccc3)c(-c3ccccc3)c12", "system_under_test": "NCI-H226", "quantity_name": "growth at 10 µM", "display_unit": "%", "value_measured": 91.5}
{"compound": "CC(=O)Oc1c(C2=NN(C(C)=O)C(c3ccc(F)cc3)O2)sc2nnc(-c3ccccc3)c(-c3ccccc3)c12 (stereo unspecified)", "system_under_test": "NCI-H226", "quantity_name": "growth at 10 µM", "display_unit": "%", "value_measured": 92.4}
{"compound": "Oc1c(-c2nnc(-c3ccc(Cl)cc3)o2)sc2nnc(-c3ccccc3)c(-c3ccccc3)c12", "system_under_test": "NCI-H226", "quantity_name": "growth at 10 µM", "display_unit": "%", "value_measured": 67.2}
{"compound": "CSc1nnc(-c2sc3nnc(-c4ccccc4)c(-c4ccccc4)c3c2O)o1", "system_under_test": "NCI-H226", "quantity_name": "growth at 10 µM", "display_unit": "%", "value_measured": 87.7}
{"compound": "CNc1nnc(-c2sc3nnc(-c4ccccc4)c(-c4ccccc4)c3c2O)s1", "system_under_test": "NCI-H226", "quantity_name": "growth at 10 µM", "display_unit": "%", "value_measured": 106}

The origin of these recorded values is ChEMBL document CHEMBL3045770.
